Some compounds, each annotated with its measured pIC50.
- assay.system: human P2X3 receptor (Homo sapiens (Human), UniProt P56373)
- Sequence (P56373 whole entry): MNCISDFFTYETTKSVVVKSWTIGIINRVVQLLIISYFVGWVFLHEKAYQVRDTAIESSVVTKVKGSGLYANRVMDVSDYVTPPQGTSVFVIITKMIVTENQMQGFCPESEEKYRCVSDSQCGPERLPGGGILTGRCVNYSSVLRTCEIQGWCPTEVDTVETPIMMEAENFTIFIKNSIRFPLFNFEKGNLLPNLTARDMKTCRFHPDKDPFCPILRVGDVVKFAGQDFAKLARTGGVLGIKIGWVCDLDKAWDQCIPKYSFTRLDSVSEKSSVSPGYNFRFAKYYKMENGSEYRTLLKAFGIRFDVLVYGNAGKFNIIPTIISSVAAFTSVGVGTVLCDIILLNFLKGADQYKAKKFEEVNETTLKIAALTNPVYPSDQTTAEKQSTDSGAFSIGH
- protocol.description: Evaluation of human P2X3 receptor inhibitory activity (Fluo-3 calcium fluorescence, FDSS 3000, ATP stimulation);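 note: stimulus was 50 nM ATP with fluorescence followed for 3 min, and the response per well was peak post-ATP fluorescence divided by the reading at measurement start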
- Type: cell-based
- assay.context: human P2X3 receptor, Test Example 1
pIC50: −log10 of the molar value.
measure: pIC50

>>> print(df.to_string())
                                    compound  reported_result
 0  Cc1cc(/N=c2\[nH]c(=O)n(CC3(C(=O)O)COC3)c(=O)n2Cc2ccc(Cl)cc2)ccc1OC(C)C             7.41
 1  CCn1c(=O)[nH]/c(=N\c2ccc(Oc3ccnc(NCC(=O)O)c3)cc2)n(Cc2ccc(Cl)cc2)c1=O             8.30
 2  CCn1c(=O)[nH]/c(=N\c2ccc(Oc3ccc(C(=O)O)c(F)c3)cc2)n(Cc2ccc(Cl)cc2)c1=O             7.92
 3  CC(=O)Nc1cc(Oc2ccc(/N=c3\[nH]c(=O)n(C)c(=O)n3Cc3ccc(Cl)cc3)cc2)ccn1             7.74
 4  Cc1ccc(Cn2c(=O)n(CC(F)(F)C(=O)O)c(=O)[nH]/c2=N\c2ccc(OC(C)C)c(C)c2)cc1             7.72
 5  O=c1[nH]/c(=N\c2ccc(Oc3ccon3)cc2)n(Cc2ccc(Cl)cc2)c(=O)n1CC(O)CO (centres unmarked)             7.96
 6  C[C@H](CO)n1c(=O)[nH]/c(=N\c2ccc(Oc3ccon3)cc2)n(Cc2ccc(Cl)cc2)c1=O             7.43
 7  Cc1nnc(Oc2ccc(/N=c3\[nH]c(=O)n(CC(CO)CO)c(=O)n3Cc3ccc(Cl)cc3)cc2)s1             6.78
 8  O=c1[nH]/c(=N\c2ccc(Oc3nccs3)cc2)n(Cc2ccc(Cl)cc2)c(=O)n1C[C@H](O)CO             8.30
 9  C[C@H](C(N)=O)n1c(=O)[nH]/c(=N\c2ccc(Oc3ccon3)cc2)n(Cc2ccc(Cl)cc2)c1=O             7.17
10  CCn1c(=O)[nH]/c(=N\c2ccc(Oc3cncc(C(N)=O)c3)cc2)n(Cc2ccc(Cl)cn2)c1=O             7.21
11  COC(=O)CCn1c(=O)[nH]/c(=N\c2ccc(Oc3ncns3)cc2)n(Cc2ccc(Cl)cc2)c1=O             8.52
12  O=c1[nH]/c(=N\c2ccc(Oc3cncc(F)c3)cc2)n(Cc2ccc(Cl)cc2)c(=O)n1C[C@H](O)CO             8.30
13  O=c1[nH]/c(=N\c2ccc(Oc3cnsn3)cc2)n(Cc2ccc(Cl)cc2)c(=O)n1C[C@H](O)CO             8.10

Measured values drawn from patent US9718790B2 for this set.
